TARGET OF ASSAY: L-lactate dehydrogenase (Plasmodium falciparum (isolate CDC / Honduras))
PROTOCOL TEXT: PfLDH activity inhibition – cell lysate, 3D7 strain, counter-screen for P. falciparum growth inhibition project (AID 2304);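 further: 0% = vehicle and 100% = reference inhibitor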
MEASUREMENT CONTEXT: P. falciparum 3D7 crude extract, LDH APAD/NBT absorbance; at 2 µM; hits give high values
Please go through the items and note down their inhibition.
Answer format: numeric, % implied, no suffix.

Lookup: // output inhibition; input Cc1cc(N[C@@H](CC(C)C)C(=O)NCc2cccc(F)c2)nc(NCCc2ccccc2)n1 ; system L-lactate dehydrogenase (Plasmodium falciparum (isolate CDC / Honduras))
Found: -1

Lookup: // output inhibition; input Cc1noc(C)c1-c1cccc(CNCc2cccc(-c3ccc(-c4nc5ccccc5[nH]4)cc3)c2)c1 ; system L-lactate dehydrogenase (Plasmodium falciparum (isolate CDC / Honduras))
Found: -2

Lookup: // output inhibition; input Cc1cc(N(C)C)nc(Nc2ccc(NC(=O)c3ccccc3C)cc2)n1 ; system L-lactate dehydrogenase (Plasmodium falciparum (isolate CDC / Honduras))
Found: -2

Lookup: // output inhibition; input C=CCn1c(Sc2ccc(C#N)c([N+](=O)[O-])c2)nnc1-c1cc(OC)cc(OC)c1 ; system L-lactate dehydrogenase (Plasmodium falciparum (isolate CDC / Honduras))
Found: 0

Lookup: // output inhibition; input O=C(NCCCCCN1CCC(c2c[nH]c3ccccc23)CC1)c1ccc(-c2cccnc2)cc1 ; system L-lactate dehydrogenase (Plasmodium falciparum (isolate CDC / Honduras))
Found: 1

Lookup: // output inhibition; input CCCCCCCCN1CCCN(C(=O)c2cccc(NC(=O)Nc3ccc4ccccc4c3)c2)CC1 ; system L-lactate dehydrogenase (Plasmodium falciparum (isolate CDC / Honduras))
Found: 1

Lookup: // output inhibition; input CN(C)c1ccc(-c2cscc2C(=O)NC2CCCN(Cc3cccnc3)C2)cc1 (centres undefined) ; system L-lactate dehydrogenase (Plasmodium falciparum (isolate CDC / Honduras))
Found: 0

Lookup: // output inhibition; input Cn1cnnc1Sc1ccc(CN2CCOc3ccc(C4=CCCCC4)cc3C2)o1 ; system L-lactate dehydrogenase (Plasmodium falciparum (isolate CDC / Honduras))
Found: 3

Lookup: // output inhibition; input Cc1[nH]c(C)c(-c2ccc(Nc3ccc(C(F)(F)F)cn3)cc2)c(=O)c1Br ; system L-lactate dehydrogenase (Plasmodium falciparum (isolate CDC / Honduras))
Found: -2

---

Please go through the items and note down their growth inhibition.
PROTOCOL TEXT: inhibition of 3D7 malaria parasite growth – strain 3D7 (AID 2306);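 further: 0% = DMSO wells and 100% = chloroquine plus artemisinin control wells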
MEASUREMENT CONTEXT: P. falciparum 3D7 erythrocytic growth, LDH absorbance, 72 h; at 2 µM; hits give high values
Active and inactive are the calls of the source. How the calls were made is not given here.

Lookup: Give recorded growth inhibition. COc1ccc(NC(=O)c2ccc(NC(=O)c3ccc(Cl)cc3)cc2)cc1N1CCN(C)CC1
Found: 98% (active)

Lookup: Give recorded growth inhibition. NC(=NC1CC1)c1ccc2nc(CCCCCc3nc4ccc(C(N)=NC5CC5)cc4[nH]3)[nH]c2c1
Found: 89% (active)

Lookup: Give recorded growth inhibition. CCOC(=O)C1=C(C)NC2=C(C(=O)CC(C)(C)C2)C1c1ccc(Br)cc1 (stereo not drawn)
Found: 90% (active)

---

PROTOCOL TEXT: inhibition of 3D7 malaria parasite growth – strain 3D7 (AID 2306);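 further: 0% = DMSO wells and 100% = chloroquine plus artemisinin control wells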
MEASUREMENT CONTEXT: P. falciparum 3D7 erythrocytic growth, LDH absorbance, 72 h; at 2 µM; hits give high values
Please go through the items and note down their growth inhibition.
Answer format: numeric, % implied, no suffix.

Lookup: Give recorded growth inhibition. CCC1CCCCN1S(=O)(=O)c1ccc(NC(=O)c2cc(C)on2)cc1 (centres undefined)
Found: 86

Lookup: Give recorded growth inhibition. COCC(=O)Nc1nc2ccccc2[nH]1
Found: 98

Lookup: Give recorded growth inhibition. CN(C)CCCOc1cccc(CCNCc2cccc(Oc3ccc(Cl)cc3)c2)c1
Found: 93

Lookup: Give recorded growth inhibition. Cc1nc2ccc3ccc(CNc4ccc(C(=O)CC(CCC(=O)O)C(=O)O)cc4)cc3c2c(=O)[nH]1 (centres undefined)
Found: 95

---

TARGET OF ASSAY: Calcium-dependent protein kinase 4 (Plasmodium falciparum (isolate 3D7))
PROTOCOL TEXT: PfCDPK4 kinase inhibitors, biochemical, TCAMS library (AID 1159588)
MEASUREMENT CONTEXT: recombinant PfCDPK4, Kinase-Glo ATP depletion luminescence
Entries with a potency or affinity are not part of this list. The source made the active and inactive calls. The limit is not given here; nearly all actives have IC50 up to about 0.91 µM.
MEASURE NAME: outcome

Completed entries (count: 5):
- COMPOUND: "CN(C(=O)Cc1ccc(Cl)cc1)C1CCN(CCCCCNC(=O)/C=C/c2ccc(Cl)c(Cl)c2)CC1"
  outcome: "inactive"
- COMPOUND: "c1cc(CN2CCC(CCN3CCCCC3)CC2)cc(-c2csc(-c3nc4ccccc4[nH]3)c2)c1"
  outcome: "inactive"
- COMPOUND: "CCNc1cc(C(=O)N[C@@H](Cc2ccccc2)[C@H](O)CNCc2cc(OC)cc(OC)c2)cc(N2CCCC2=O)c1"
  outcome: "inactive"
- COMPOUND: "Cc1cc(NC(=O)c2ccco2)ccc1OC1CCN(Cc2ccc(F)cc2)C1 (stereo unspecified)"
  outcome: "inactive"
- COMPOUND: "CCOC(=O)c1ccc(NC(=O)Nc2cccc(-c3cccc(-c4nc5c(C)cccc5[nH]4)c3)c2)cc1"
  outcome: "inactive"

Proceeding to the next compound to report its outcome.
Lookup: Give recorded outcome. O=C(NCCc1cccc(F)c1)c1cc(Br)cc(N2CCN(c3ccncc3)CC2)c1
Found: inactive

---

TARGET OF ASSAY: L-lactate dehydrogenase (Plasmodium falciparum (isolate CDC / Honduras)) (UniProt Q27743)
Sequence (Q27743 whole entry, looked up): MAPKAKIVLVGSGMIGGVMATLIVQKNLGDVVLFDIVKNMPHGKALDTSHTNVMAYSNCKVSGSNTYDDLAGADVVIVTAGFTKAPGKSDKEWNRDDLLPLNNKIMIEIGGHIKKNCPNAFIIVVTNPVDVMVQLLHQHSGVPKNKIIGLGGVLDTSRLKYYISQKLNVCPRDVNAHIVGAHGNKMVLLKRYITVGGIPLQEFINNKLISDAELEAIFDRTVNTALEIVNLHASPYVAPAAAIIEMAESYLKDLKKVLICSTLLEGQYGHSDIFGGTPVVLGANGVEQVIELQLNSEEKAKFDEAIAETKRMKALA
PROTOCOL TEXT: PfLDH activity inhibition – cell lysate, 3D7 strain, counter-screen for P. falciparum growth inhibition project (AID 2304);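 further: 0% = vehicle and 100% = reference inhibitor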
MEASUREMENT CONTEXT: P. falciparum 3D7 crude extract, LDH APAD/NBT absorbance; at 2 µM; hits give high values
Please go through the items and note down their inhibition.
Answer format: numeric, % implied, no suffix.

Lookup: Give recorded inhibition. Cc1cc(C(=O)CN2C(=O)NC3(CCOc4ccccc43)C2=O)c(C)n1Cc1ccco1 (stereo not drawn)
Found: 5

Lookup: Give recorded inhibition. COc1cc(Cc2cnc(N)nc2N)c2ccsc2c1OC
Found: 0

Lookup: Give recorded inhibition. CCc1cccc2sc(N3CCN(C(=O)c4ccc([N+](=O)[O-])o4)CC3)nc12
Found: 0

Lookup: Give recorded inhibition. Cc1ccc(Cn2nc(N3CCNCC3)ccc2=O)cc1NC(=O)Nc1ccc(-c2ccccc2)cc1
Found: -1

Lookup: Give recorded inhibition. CCOc1ccc(C(Cc2ccccc2)NC(=O)c2cccnc2)cc1OCC (stereo not drawn)
Found: 5

Lookup: Give recorded inhibition. O=C(/C=C/c1ccc(Cl)c(Cl)c1)NCC[C@@H]1C[C@H]1CCN1CCC(c2c[nH]c3ccccc23)CC1
Found: -8

Lookup: Give recorded inhibition. CC1(C)N=C(N)N=C(N)N1c1ccc(Cl)c(Cl)c1
Found: 0

Lookup: Give recorded inhibition. CC(C)=CCN1CCC(C(=O)Nc2ccc(-c3nc4ccccc4[nH]3)cc2)CC1
Found: -3

Lookup: Give recorded inhibition. O=C(Nc1ccc(-c2nc3ccccc3[nH]2)cc1)c1ccc(S(=O)(=O)N2CCc3ccccc32)cc1
Found: 3

Lookup: Give recorded inhibition. COc1ccc(Cl)cc1NC(=O)C(C)N1CCN(S(=O)(=O)c2ccccc2F)CC1 (stereo not drawn)
Found: 4

Lookup: Give recorded inhibition. CC(Cc1ccc(NC(=O)c2ccc(CNCc3ccccc3)cc2)cc1)N(CCc1cccc(Cl)c1)C(=O)OC(C)(C)C (stereo not drawn)
Found: -2

Lookup: Give recorded inhibition. CCCCN1Cc2c(n(CC(=O)Nc3ccccc3)c3cc(-c4ccccc4)nn3c2=O)C1=O
Found: -1

Lookup: Give recorded inhibition. CC(=O)N(Cc1nc(-c2cc(Cl)c(Cl)s2)cs1)c1c(C)cccc1C
Found: 3

---

PROTOCOL TEXT: inhibition of 3D7 malaria parasite growth – strain 3D7 (AID 2306);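 further: 0% = DMSO wells and 100% = chloroquine plus artemisinin control wells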
MEASUREMENT CONTEXT: P. falciparum 3D7 erythrocytic growth, LDH absorbance, 72 h; at 2 µM; hits give high values
MEASURE NAME: growth inhibition (%)
Answer format: numeric, % implied, no suffix.

Lookup: Give recorded growth inhibition. Cc1cc(C)c(O)c(-c2cc(C(=O)Nc3ccc(S(=O)(=O)N4CC(C)OC(C)C4)cc3)[nH]n2)c1 (stereo not given)
Found: 95

Lookup: Give recorded growth inhibition. CN(C(=O)Cc1ccc(Cl)c(Cl)c1)C1CCN(CCCCCNC(=O)/C=C/c2ccc(Cl)c(Cl)c2)CC1
Found: 84

Lookup: Give recorded growth inhibition. FC(F)(F)c1ccc2nc(-c3cccc(-c4ccc(CNCCN5CCNCC5)cc4)c3)[nH]c2c1
Found: 96

Lookup: Give recorded growth inhibition. COc1ccccc1C1CCN(C2CCC(NC(=O)c3cc4ccccc4[nH]3)CC2)CC1 (stereo not given)
Found: 88

Lookup: Give recorded growth inhibition. N=c1c(C(=O)NCc2ccccc2)cc2c(=O)n3ccccc3nc2n1CCc1ccccc1
Found: 99

Lookup: Give recorded growth inhibition. CCCCOc1ccc(-c2nc3ccccc3[nH]2)cc1
Found: 86

Lookup: Give recorded growth inhibition. Cc1ccc(C)c(Cn2ccc3nc(N)nc(N)c32)c1
Found: 97

Lookup: Give recorded growth inhibition. NC(=O)Nc1ccc2c(Nc3ccc(OCc4ccccc4)cc3)ncnc2c1
Found: 84

Lookup: Give recorded growth inhibition. CCC1N=C(N)N=C(N)N1OCc1ccc(Cl)c(Cl)c1 (stereo not given)
Found: 93

Lookup: Give recorded growth inhibition. CCC(C)c1ccc(NC(=O)Nc2ccc(Cn3ncc(N4CCCNCC4)c(Cl)c3=O)cc2)cc1 (stereo not given)
Found: 83

Lookup: Give recorded growth inhibition. O=C(Nc1cc(F)cc(F)c1)N1CCOC(CCN2CCC(c3ccccc3)CC2)(c2ccc(Cl)c(Cl)c2)C1 (stereo not given)
Found: 91

Lookup: Give recorded growth inhibition. COc1ccc(-c2cc(-c3nc4ccc(CN)cc4[nH]3)c(=O)n(C)c2)cc1OC
Found: 85

Lookup: Give recorded growth inhibition. N#Cc1ccc2c(c1)CCN(CCC1CCC(NC(=O)/C=C/c3cccc4cc[nH]c34)CC1)CC2 (stereo not given)
Found: 89

Lookup: Give recorded growth inhibition. Cc1cc(C)c(S(=O)(=O)N2CCCCC(c3cccc(C(F)(F)F)c3)=N2)c(C)c1
Found: 94

Lookup: Give recorded growth inhibition. CC(=O)c1c[nH]c(C(=O)Nc2ccc(-c3cn4ccccc4n3)cc2)c1
Found: 98

Lookup: Give recorded growth inhibition. COc1ccc(CNC2Cc3ccccc3C2)cc1-c1cccc(S(=O)(=O)NCCN2CCCC2)c1
Found: 98

Lookup: Give recorded growth inhibition. O=C(NCc1ccc2c(c1)OCO2)c1nn(CCN2CCC(N3CCCC3)CC2)cc1-c1ccc(Cl)c(Cl)c1
Found: 94

Lookup: Give recorded growth inhibition. Cc1cc(NN=Cc2ccccc2F)c2ccccc2n1
Found: 101

Lookup: Give recorded growth inhibition. CCCCCCCN1CC[C@@H](CCCc2ccnc3ccc(OCCC4CCNCC4)cc23)[C@@H](CC)C1
Found: 104

Lookup: Give recorded growth inhibition. COc1c(C2CCN(CCCCNC(=O)c3ccc(-c4ccc(Cl)cc4)c(O)c3)CC2)ccc2c1CCCC2
Found: 102

Lookup: Give recorded growth inhibition. c1cncc(NCc2ccc(-c3cc4ccncc4cc3OC3CCNCC3)s2)c1
Found: 100

Lookup: Give recorded growth inhibition. CCNc1cc(C(=O)N[C@@H](Cc2ccco2)[C@H](O)CNC2CCCCC2)cc(N2CCCCS2(=O)=O)c1
Found: 91

Lookup: Give recorded growth inhibition. CN(CCO)Cc1ccc(-c2ccc(NS(=O)(=O)c3cccc4cccnc34)cc2)cc1
Found: 99

Lookup: Give recorded growth inhibition. Cc1ccc2c(Cl)c(C(=O)N3CC(C)OC(C)C3)sc2c1 (stereo not given)
Found: 100

Lookup: Give recorded growth inhibition. c1ccc(CNCc2cccc(-c3cccc(-c4nc5ccccc5[nH]4)c3)c2)cc1
Found: 102

Lookup: Give recorded growth inhibition. CC(C)CCN(Cc1cncn1Cc1cccc(C(F)(F)F)c1)C(=O)c1cncc(-c2ccccc2)c1
Found: 100

Lookup: Give recorded growth inhibition. COc1ccc2nccc([C@@H](O)CN3CCC(NCc4ccc(OC)c(NC=O)c4)CC3)c2c1
Found: 97

Lookup: Give recorded growth inhibition. Cc1cc(NN=Cc2cccc(Cl)c2)c2ccccc2n1
Found: 100

Lookup: Give recorded growth inhibition. Cc1cccnc1Nc1nc(-c2ccccn2)cs1
Found: 96

Lookup: Give recorded growth inhibition. CCCc1ccc(C(=O)N2[C@@H](c3nccs3)[C@@H](C(N)=O)C[C@@]2(CC(C)C)C(=O)O)cc1
Found: 94

Lookup: Give recorded growth inhibition. CCCCN1CCN(CCCNc2c3ccccc3nc3ccccc23)CC1
Found: 101

Lookup: Give recorded growth inhibition. COc1ccccc1CC1CCCN(C2CCC(NC(=O)c3cc4ccccc4[nH]3)CC2)C1 (stereo not given)
Found: 98

Lookup: Give recorded growth inhibition. CN(Cc1ccc(-c2ccc(C(F)(F)F)cc2)cc1)C(=O)Cn1c(CCc2cccc(F)c2F)cc(=O)c2ccc(OCCCN3CCCCC3)cc21
Found: 103

Lookup: Give recorded growth inhibition. CCN(CC)CCN(Cc1ccc(-c2ccc(C(F)(F)F)cc2)cc1)C(=O)Cn1c(CCc2ccccc2F)nc(=O)c2ccccc21
Found: 95

Lookup: Give recorded growth inhibition. Cc1ccccc1NC(=O)NC1CCN(CCCCCNC(=O)/C=C/c2ccc(Cl)c(Cl)c2)CC1
Found: 102
